I'd appreciate it if you could supply Potency Luciferase values for the items below.
Biological target: T1, Amylin 3(a) receptor (human calcitonin receptor (CTa) with RAMP-3) (human, UniProt P30988 25-474; O60896 24-148, limits assumed)
T1 sequence (looked up) 1: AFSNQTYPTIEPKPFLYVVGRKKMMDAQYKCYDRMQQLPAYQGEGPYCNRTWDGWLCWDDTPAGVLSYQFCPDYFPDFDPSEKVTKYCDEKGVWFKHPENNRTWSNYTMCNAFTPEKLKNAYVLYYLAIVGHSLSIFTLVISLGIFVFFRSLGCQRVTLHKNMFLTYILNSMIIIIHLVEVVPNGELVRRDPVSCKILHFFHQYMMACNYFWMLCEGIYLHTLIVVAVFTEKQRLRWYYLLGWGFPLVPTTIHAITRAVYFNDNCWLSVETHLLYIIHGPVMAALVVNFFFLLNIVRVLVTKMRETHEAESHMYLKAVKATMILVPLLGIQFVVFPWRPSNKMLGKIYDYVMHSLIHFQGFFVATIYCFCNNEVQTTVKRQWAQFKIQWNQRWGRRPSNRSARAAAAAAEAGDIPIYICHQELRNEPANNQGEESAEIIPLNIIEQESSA
T1 sequence (looked up) 2: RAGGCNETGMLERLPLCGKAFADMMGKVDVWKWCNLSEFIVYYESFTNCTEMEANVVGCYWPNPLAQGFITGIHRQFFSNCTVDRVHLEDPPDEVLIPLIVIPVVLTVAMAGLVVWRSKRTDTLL
Test: cell-based or functional assay
*1 amine or outer side, *2 acyl side, *3 side chain or, on linkers, in order; H or OH if unused. Bridges are numbered along the chain shown (N, C = ends). Where no end group is shown, it is not given here. Side-chain parts run from the residue outwards. The star is where a group is joined. X1 = (S)‑4‑Carboxy‑4‑(17-carboxyheptadecanoylamino)butyryl, O=C(O)CCCCCCCCCCCCCCCCC(=O)N[C@@H](CCC(=O)*)C(=O)O; C20 diacid = O=C(O)CCCCCCCCCCCCCCCCCCC(=O)*; C18 diacid = O=C(O)CCCCCCCCCCCCCCCCC(=O)*; γGlu = O=C(O)[C@H](CCC(=O)[*:2])N[*:1]; AEEA = NCCOCCOCC(=O)O
Numbers only, in nM.

Illustrative cases are given below, each with its answer.
binder	scale.unit	Potency Luciferase
KCK([Glu-Arg-Glu-Glu-C20 diacid])TATCATQRLANFLHHSSDNFGPILPPTNVGSNTY-NH2 (disulfide 2-7) [N-epsilon3-(19-carboxynonadecanoyl-Glu-Glu-Arg-Glu)-[Lys3,His17,Asp21]-pramlintide]	nM	0.9
{C20 diacid-γGlu-AEEA}-CNTATCATQRLANFLHHSSNNFGPILPPTNVGSNTY-NH2 (disulfide 1-6)	nM	0.1
KCK([Glu-Glu-Glu-Glu-C20 diacid])TATCATQRLANFLHHSSDNFGPILPPTNVGSNTY-NH2 (disulfide 2-7) [N-epsilon3-(19-carboxynonadecanoyl-Glu-Glu-Glu-Glu)-[Lys3,His17,Asp21]-pramlintide]	nM	2
{C18 diacid-γGlu-AEEA-AEEA}-CNTATCATQRLANFLHHSSNNFGPILPPTNVGSNTY-NH2 (disulfide 1-6)	nM	0.04
X1-CNTATCATQRLANFLHHSSNNFGPILPPTNVGSNTY-NH2 (disulfide 1-6) [N-alpha-[(S)-4-Carboxy-4-(17-carboxyheptadecanoylamino)butyryl]-[His17]-pramlintide (2-37)]	nM	0.08

// batch mode: one Potency Luciferase value per listed entry
1. {C20 diacid-γGlu}-KCNTATCATQRLANFLHHSSNNFGPILPPTNVGSNTY-NH2 (disulfide 2-7) [N-alpha-[(S)-4-Carboxy-4-(19-carboxynonadecanoylamino)butyryl]-[His17]-pramlintide]
2. HHCNTATCATQRLANFLHHSSNNFGPILPPTNVGSNTY-NH2 (disulfide 3-8; not fully specified (N-terminus); printed as N-alpha-[(S)-4-Carboxy-4-(19-carboxynonadecanoylamino)butyryl]-His-[His1,His17]-pramlintide) [N-alpha-[(S)-4-Carboxy-4-(19-carboxynonadecanoylamino)butyryl]-His-[His1,His17]-pramlintide]
3. HRHCNTATCATQRLANFLHHSSNNFGPILPPTNVGSNTY-NH2 (disulfide 4-9; not fully specified (N-terminus); printed as N-alpha-[(S)-4-Carboxy-4-(19-carboxynonadecanoylamino)butyryl]-His-Arg-[His1,His17]-pramlintide) [N-alpha-[(S)-4-Carboxy-4-(19-carboxynonadecanoylamino)butyryl]-His-Arg-[His1,His17]-pramlintide]

[0.2, 0.1, 0.05]
